Values were extracted from paper PMC10436550.

- test details: Toxicokinetics, plasma LPM3480392 after intravenous administration
- Type: in vivo, Sprague Dawley (SD) rats
- condition notes: both sexes, Sprague-Dawley, rat, plasma, iv, 0.6 mg/kg/day, 0.6 mg/kg/day iv; 28th dosing day; F + M; read-out: AUC0–12h
- Description: Blood samples from animals in LPM3480392 groups were collected at predose and 2 min, 30 min, 1 h and 4 h postdose of the 1st dosing on Days 1 and 28; at 2 min and 4 h postdose of the 2nd dosing on Days 1 and 28; at 2 min, 1 h and 4 h postdose the 3rd dosing on Days 1 and 28. Animals in control group were sampled at predose and 2 min postdose of the 1st dosing on Days 1 and 28. […] TK parameters (AUC, Cmax, Tmax) were calculated by Phoenix WinNonlin (Pharsight) 8.2. […]

>  <molecule>
Fc1ccc([C@]2(CCNCc3cccc(Cl)c3)CCO[C@]3(CCOC3)C2)nc1 [LPM3480392]

>  <AUC(0-t) (µg·h/mL)>
0.349

$$$$
